species on record: Rattus norvegicus; experiment: Selectivity ratio of Ki for rat DAT to Ki for SERT
measurement name: Ratio
Would you mind answering with just the numeric figure?

Use these answered entries as a reference point.
- compound: "Clc1ccc(CO[C@@]2(c3ccccc3)C[C@H]3CC[C@@H](C2)N3)cc1"
  Ratio: 3.6
- compound: "FC(F)(F)c1ccc(C2=CC3CCC(C2)N3)cc1 (centres undefined)"
  Ratio: 830
- compound: "Clc1ccc(C2=CC3CCC(C2)N3)cc1Cl (centres undefined)"
  Ratio: 53

In plain terms, Clc1ccc(C2=CC3CCC(C2)N3)cc1 (centres undefined) has a documented Ratio of 83

In plain terms, Fc1ccc(C2=CC3CCC(C2)N3)cc1 (centres undefined) has a documented Ratio of 8.2

Memo: "Clc1ccc(CO[C@@]2(c3ccc(Cl)cc3)C[C@H]3CC[C@@H](C2)N3)cc1" , reported Ratio: 630

Ratio recorded for this compound, C1=C(c2ccccc2)CC2CCC1N2 (centres undefined) , is 6.9

The recorded Ratio for entry "Clc1ccc(CO[C@@]2(c3ccccc3)C[C@H]3CC[C@@H](C2)N3)cc1Cl" equals 258

Ratio for "Clc1ccc([C@]2(OCc3ccccc3)C[C@H]3CC[C@@H](C2)N3)cc1Cl" is 11

The compound identified as "Clc1ccc(CO[C@@]2(c3ccc(Cl)c(Cl)c3)C[C@H]3CC[C@@H](C2)N3)cc1Cl" registered its Ratio at 601

// "Clc1ccc([C@]2(OCc3ccccc3)C[C@H]3CC[C@@H](C2)N3)cc1" : Ratio value = 2.7

Consider "Clc1ccc(CO[C@@]2(c3ccc(Cl)c(Cl)c3)C[C@H]3CC[C@@H](C2)N3)cc1" . Its measured Ratio is 46

Ratio reported for this compound "FC(F)(F)c1ccc([C@]2(OCc3ccccc3)C[C@H]3CC[C@@H](C2)N3)cc1" : 2.6

Consider "c1ccc(CO[C@@]2(c3ccccc3)C[C@H]3CC[C@@H](C2)N3)cc1" . Its measured Ratio is 0.47

----------
species on record: Rattus norvegicus; test: Selectivity ratio of Ki for rat NET to Ki for DAT
Strictly below 10 in Ratio: Yes. Otherwise: No.

- compound: "Clc1ccc(C2=CC3CCC(C2)N3)cc1Cl (centres undefined)"
  assigned category: "Yes"
- compound: "Clc1ccc(CO[C@@]2(c3ccccc3)C[C@H]3CC[C@@H](C2)N3)cc1Cl"
  assigned category: "No"
- compound: "Clc1ccc(CO[C@@]2(c3ccc(Cl)c(Cl)c3)C[C@H]3CC[C@@H](C2)N3)cc1"
  assigned category: "Yes"
- compound: "Clc1ccc(CO[C@@]2(c3ccccc3)C[C@H]3CC[C@@H](C2)N3)cc1"
  assigned category: "Yes"
- compound: "FC(F)(F)c1ccc([C@]2(OCc3ccccc3)C[C@H]3CC[C@@H](C2)N3)cc1"
  assigned category: "Yes"

[Q] Please determine if "Clc1ccc(CO[C@@]2(c3ccc(Cl)c(Cl)c3)C[C@H]3CC[C@@H](C2)N3)cc1Cl" is below 10 in terms of Ratio.
[A] Yes

[Q] Threshold test, Ratio < 10: Clc1ccc(C2=CC3CCC(C2)N3)cc1 (centres undefined)
[A] Yes

[Q] Is Ratio strictly under 10 for the entry "Clc1ccc(CO[C@@]2(c3ccc(Cl)cc3)C[C@H]3CC[C@@H](C2)N3)cc1" ?
[A] No
